# assayed system: HA of ca A/Hong Kong/213/03 (H5N1) virus (influenza A virus)
# test method notes: cell-based or functional assay
experimental endpoint: Neutralization IC50, H5-HK03 (µg/mL)
Answers are plain numbers, in µg/mL.

q: Entry Antibody 11 (antibody, V domains shown) VH: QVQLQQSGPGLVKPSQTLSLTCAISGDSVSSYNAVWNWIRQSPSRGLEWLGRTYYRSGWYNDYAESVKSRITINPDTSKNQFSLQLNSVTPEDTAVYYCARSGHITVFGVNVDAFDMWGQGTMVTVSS VL: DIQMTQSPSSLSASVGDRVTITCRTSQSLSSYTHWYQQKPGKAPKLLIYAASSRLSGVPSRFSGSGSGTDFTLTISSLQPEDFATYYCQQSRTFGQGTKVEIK : reported Neutralization IC50, H5-HK03 = ?
a: 0.21
